Test system: ABUTH
Assay: Pre-emergence action against ABUTH
Assay type: in vivo, Abutilon theophrasti
Conditions: Abutilon theophrasti, 504 h; pre-emergence, dosage 320 g/ha, scored visually after 3 weeks vs untreated controls; read-out: Pre-emergence action against ABUTH (herbicidal activity)

{"columns": ["Molecule", "Units Of Measure", "pest or weed control at 320 g/ha"],
 "data": [
  ["CC(=O)c1c(S(C)(=O)=O)ccc(C(=O)Nc2nnnn2C)c1C [1-7]", "%", 100],
  ["CCC(=O)c1c(C(F)F)ccc(C(=O)Nc2nnnn2C)c1Cl [1-165]", "%", 100],
  ["CC(=O)C(=O)c1c(C(F)(F)F)ccc(C(=O)Nc2nnnn2C)c1Cl [1-146]", "%", 100],
  ["CC(=O)c1c(C(F)F)ccc(C(=O)Nc2nnnn2C)c1Cl [1-164]", "%", 100],
  ["COc1c(C(=O)Nc2nnnn2C)ccc(C(F)(F)F)c1C(C)=O [1-48]", "%", 100],
  ["CSc1ccc(C(=O)Nc2nnnn2C)c(Cl)c1C(=O)C1CC1 [1-123]", "%", 90],
  ["CCC(=O)c1c(Cl)ccc(C(=O)Nc2nnnn2C)c1Cl [1-115]", "%", 100],
  ["CCCC(=O)c1c(C(F)(F)F)ccc(C(=O)Nc2nnnn2C)c1C [1-16]", "%", 100],
  ["CC(=O)c1c(C(F)(F)F)ccc(C(=O)Nc2nnnn2C)c1Br [1-195]", "%", 100],
  ["CSc1c(C(=O)Nc2nnnn2C)ccc(C(F)(F)F)c1C(C)=O [1-58]", "%", 100],
  ["CC(=O)c1c(C)ccc(C(=O)Nc2nnnn2C)c1Cl [1-134]", "%", 90],
  ["CCn1nnnc1NC(=O)c1ccc(C(F)(F)F)c(C(=O)C2CC2)c1C [2-18]", "%", 100],
  ["CC(C)C(=O)c1c(Cl)ccc(C(=O)Nc2nnnn2C)c1Cl [1-280]", "%", 90],
  ["Cn1nnnc1NC(=O)c1ccc(C(F)(F)F)c(C(=O)C(F)F)c1Cl [1-163]", "%", 100],
  ["Cn1nnnc1NC(=O)c1ccc(S(C)(=O)=O)c(C(=O)C2CC2)c1Cl [1-129]", "%", 100],
  ["COc1c(C(=O)Nc2nnnn2C)ccc(C(F)(F)F)c1C(=O)C1CC1 [1-50]", "%", 100],
  ["CSc1c(C(=O)Nc2nnnn2C)ccc(C(F)(F)F)c1C(=O)C1CC1 [1-60]", "%", 100],
  ["CC(=O)c1c(C)ccc(C(=O)Nc2nnnn2C)c1C [1-1]", "%", 90],
  ["CSc1ccc(C(=O)Nc2nnnn2C)c(Cl)c1C(C)=O [1-121]", "%", 90],
  ["Cc1c(C(=O)Nc2nnnn2C)ccc(C(F)(F)F)c1C(=O)C1CC1 [1-18]", "%", 100],
  ["CCCC(=O)c1c(C(F)(F)F)ccc(C(=O)Nc2nnnn2C)c1Cl [1-139]", "%", 100],
  ["Cn1nnnc1NC(=O)c1ccc(C(F)F)c(C(=O)C2CC2)c1Cl [1-168]", "%", 100],
  ["Cn1nnnc1NC(=O)c1ccc(C(F)(F)F)c(C(=O)C2CC2)c1C1CC1 [1-233]", "%", 100],
  ["Cn1nnnc1NC(=O)c1ccc(C(F)(F)F)c(C(=O)C2CC2)c1Cl [1-141]", "%", 100],
  ["CSc1c(C(=O)Nc2nnnn2C)ccc(C(F)F)c1C(C)=O [1-65]", "%", 100],
  ["CC(=O)c1c(I)ccc(C(=O)Nc2nnnn2C)c1Cl [1-192]", "%", 100],
  ["Cc1ccc(C(=O)Nc2nnnn2C)c(C)c1C(=O)C1CC1 [1-3]", "%", 90],
  ["Cn1nnnc1NC(=O)c1ccc(Cl)c(C(=O)c2cccs2)c1Cl [1-282]", "%", 90],
  ["CC(=O)c1c(C(F)(F)F)ccc(C(=O)Nc2nnnn2C)c1Cl [1-137]", "%", 100],
  ["Cn1nnnc1NC(=O)c1ccc(C(F)(F)F)c(C(=O)C(C)(C)C)c1Cl [1-143]", "%", 100],
  ["Cn1nnnc1NC(=O)c1ccc(C(F)(F)F)c(C(=O)C(F)(F)F)c1Cl [1-162]", "%", 100],
  ["Cc1c(C(=O)Nc2nnnn2C)ccc(S(C)(=O)=O)c1C(=O)C1CC1 [1-9]", "%", 100],
  ["CSc1c(C(=O)Nc2nnnn2C)ccc(C(F)F)c1C(=O)C1CC1 [1-67]", "%", 100],
  ["CC(=O)c1c(S(C)(=O)=O)ccc(C(=O)Nc2nnnn2C)c1Cl [1-127]", "%", 100]
]}

====

// reported Pre-emergence action against VIOTR for each item listed
Test system: VIOTR
Assay: Pre-emergence action against VIOTR
Assay type: in vivo, Viola tricolor
Conditions: Dosage 320 g/ha, pre-emergence
Description: Seeds of monocotyledonous and dicotyledonous weed plants and crop plants are laid out in sandy loam soil in wood-fiber pots and covered with soil. […] The damage to the test plants is scored visually after a test period of 3 weeks by comparison with untreated controls (herbicidal activity in percent (%): 100% activity=the plants have died, 0% activity=like control plants).

{"columns": ["Smiles String", "Assay System", "Units Of Measure", "Pre-emergence action against VIOTR"],
 "data": [
  ["CCn1nnnc1NC(=O)c1ccc(C(F)(F)F)c(C(=O)C2CCCCC2)c1SC", "VIOTR", "%", 100],
  ["CCn1nnnc1NC(=O)c1ccc(Cl)c(C(=O)C2CC2)c1Cl", "VIOTR", "%", 100],
  ["CCCn1nnnc1NC(=O)c1ccc(C(F)F)c(C(=O)C2CC2)c1SC", "VIOTR", "%", 100],
  ["CCn1nnnc1NC(=O)c1ccc(C(F)(F)F)c(C(=O)C(F)F)c1Cl", "VIOTR", "%", 100],
  ["CCCn1nnnc1NC(=O)c1ccc(C(F)(F)F)c(C(C)=O)c1OC", "VIOTR", "%", 100]
]}

====

Tested on: LOLRI
Assay: Post-emergence action against LOLRI
Type: in vivo, Lolium rigidum
Conditions: Lolium rigidum, 504 h, dosage 80 g/ha, visual assessment about 3 weeks after treatment vs untreated controls, read-out: Post-emergence action against LOLRI (herbicidal action in percent)

{"columns": ["Smiles String", "Assay System", "pest or weed control at 80 g/ha [%]"],
 "data": [
  ["CSc1c(C(=O)Nc2nnnn2C)ccc(C(F)(F)F)c1C(=O)C1CC1", "LOLRI", 100],
  ["CCC(=O)c1c(C(F)F)ccc(C(=O)Nc2nnnn2C)c1Cl", "LOLRI", 80],
  ["Cn1nnnc1NC(=O)c1ccc(C(F)F)c(C(=O)C2CC2)c1Cl", "LOLRI", 100],
  ["CC(=O)c1c(I)ccc(C(=O)Nc2nnnn2C)c1Cl", "LOLRI", 100],
  ["CC(C)C(=O)c1c(C(F)(F)F)ccc(C(=O)Nc2nnnn2C)c1Cl", "LOLRI", 80]
]}

====

System: ABUTH
Assay: Pre-emergence action against ABUTH
Type: in vivo, Abutilon theophrasti
Settings: pre-emergence, dosage 320 g/ha, scored visually after 3 weeks vs untreated controls
Recorded Metric: Pre-emergence action against ABUTH (herbicidal activity) (%)

{"columns": ["Molecule", "Units Of Measure", "Experimental Value"],
 "data": [
  ["CCC(=O)c1c(Cl)ccc(C(=O)Nc2nnnn2CC)c1Cl [2-115]", "%", 100],
  ["CCCn1nnnc1NC(=O)c1ccc(C(F)(F)F)c(C(=O)C2CCCCC2)c1SC [3-281]", "%", 100],
  ["CCn1nnnc1NC(=O)c1ccc(C)c(C(=O)C2CC2)c1Cl [2-136]", "%", 90],
  ["CCCC(=O)c1c(C(F)(F)F)ccc(C(=O)Nc2nnnn2CC)c1Cl [2-139]", "%", 100],
  ["Cc1c(C(=O)Nc2nnnn2C)ccc(C(F)(F)F)c1C(=O)CCl [1-22]", "%", 100],
  ["CCCn1nnnc1NC(=O)c1ccc(C(F)F)c(C(=O)C2CC2)c1SC [3-67]", "%", 100],
  ["CCn1nnnc1NC(=O)c1ccc(Cl)c(C(=O)C2CC2)c1Cl [2-116]", "%", 100],
  ["CCn1nnnc1NC(=O)c1ccc(C(F)(F)F)c(C(=O)C(C)(C)C)c1Cl [2-143]", "%", 100],
  ["CCCn1nnnc1NC(=O)c1ccc(C)c(C(C)=O)c1C [3-1]", "%", 100],
  ["CCCn1nnnc1NC(=O)c1ccc(C)c(C(C)=O)c1Cl [3-134]", "%", 100]
]}

====

System: VIOTR
Test: Post-emergence action against VIOTR
Assay type: in vivo, Viola tricolor
Settings: post-emergence, dosage 80 g/ha

{"columns": ["Compound", "Assay System", "Post-emergence action against VIOTR"],
 "data": [
  ["CCn1nnnc1NC(=O)c1ccc(C(F)(F)F)c(C(C)=O)c1OC [2-48]", "VIOTR", 100],
  ["CCCn1nnnc1NC(=O)c1ccc(C(F)F)c(C(C)=O)c1SC [3-65]", "VIOTR", 100],
  ["CCCn1nnnc1NC(=O)c1ccc(C(F)(F)F)c(C(=O)C2CC2)c1OC [3-50]", "VIOTR", 100],
  ["CCn1nnnc1NC(=O)c1ccc(C(F)(F)F)c(C(=O)C2CC2C)c1Cl (centres unmarked) [2-148]", "VIOTR", 90],
  ["CCn1nnnc1NC(=O)c1ccc(Cl)c(C(C)=O)c1Cl [2-114]", "VIOTR", 100],
  ["CCCn1nnnc1NC(=O)c1ccc(I)c(C(C)=O)c1Cl [3-192]", "VIOTR", 100],
  ["CCCn1nnnc1NC(=O)c1ccc(S(C)(=O)=O)c(C(C)=O)c1C [3-7]", "VIOTR", 100],
  ["CCCn1nnnc1NC(=O)c1ccc(C(F)(F)F)c(C(=O)C2CC2)c1Br [3-197]", "VIOTR", 100],
  ["CCn1nnnc1NC(=O)c1ccc(C(F)F)c(C(=O)C2CC2)c1SC [2-67]", "VIOTR", 100],
  ["CCCn1nnnc1NC(=O)c1ccc(C(F)(F)F)c(C(=O)C2CCC2)c1SC [3-280]", "VIOTR", 80],
  ["CCCn1nnnc1NC(=O)c1ccc(C(F)F)c(C(=O)C2CC2)c1SC [3-67]", "VIOTR", 100],
  ["CCCn1nnnc1NC(=O)c1ccc(C)c(C(C)=O)c1Cl [3-134]", "VIOTR", 90],
  ["CCCn1nnnc1NC(=O)c1ccc(C(F)(F)F)c(C(=O)C(F)F)c1Cl [3-163]", "VIOTR", 80],
  ["Cn1nnnc1NC(=O)c1ccc(C(F)(F)F)c(C(=O)CCl)c1Cl [1-145]", "VIOTR", 100],
  ["CCn1nnnc1NC(=O)c1ccc(C(F)(F)F)c(C(=O)C(C)C)c1Cl [2-140]", "VIOTR", 100],
  ["CCn1nnnc1NC(=O)c1ccc(C(F)(F)F)c(C(C)=O)c1SC [2-58]", "VIOTR", 100],
  ["CCn1nnnc1NC(=O)c1ccc(C(F)F)c(C(C)=O)c1SC [2-65]", "VIOTR", 100],
  ["CCn1nnnc1NC(=O)c1ccc(C(F)(F)F)c(C(=O)C(F)F)c1Cl [2-163]", "VIOTR", 100],
  ["CCn1nnnc1NC(=O)c1ccc(C(F)(F)F)c(C(C)=O)c1Br [2-195]", "VIOTR", 100],
  ["CSc1c(C(=O)Nc2nnnn2C)ccc(C(F)(F)F)c1C(=O)C1CCC1 [1-284]", "VIOTR", 100]
]}
